System Name: T1, GR(I747/T) glucocorticoid receptor mutant (Homo sapiens, UniProt P04150 SEQ:1-777)
T1 chain: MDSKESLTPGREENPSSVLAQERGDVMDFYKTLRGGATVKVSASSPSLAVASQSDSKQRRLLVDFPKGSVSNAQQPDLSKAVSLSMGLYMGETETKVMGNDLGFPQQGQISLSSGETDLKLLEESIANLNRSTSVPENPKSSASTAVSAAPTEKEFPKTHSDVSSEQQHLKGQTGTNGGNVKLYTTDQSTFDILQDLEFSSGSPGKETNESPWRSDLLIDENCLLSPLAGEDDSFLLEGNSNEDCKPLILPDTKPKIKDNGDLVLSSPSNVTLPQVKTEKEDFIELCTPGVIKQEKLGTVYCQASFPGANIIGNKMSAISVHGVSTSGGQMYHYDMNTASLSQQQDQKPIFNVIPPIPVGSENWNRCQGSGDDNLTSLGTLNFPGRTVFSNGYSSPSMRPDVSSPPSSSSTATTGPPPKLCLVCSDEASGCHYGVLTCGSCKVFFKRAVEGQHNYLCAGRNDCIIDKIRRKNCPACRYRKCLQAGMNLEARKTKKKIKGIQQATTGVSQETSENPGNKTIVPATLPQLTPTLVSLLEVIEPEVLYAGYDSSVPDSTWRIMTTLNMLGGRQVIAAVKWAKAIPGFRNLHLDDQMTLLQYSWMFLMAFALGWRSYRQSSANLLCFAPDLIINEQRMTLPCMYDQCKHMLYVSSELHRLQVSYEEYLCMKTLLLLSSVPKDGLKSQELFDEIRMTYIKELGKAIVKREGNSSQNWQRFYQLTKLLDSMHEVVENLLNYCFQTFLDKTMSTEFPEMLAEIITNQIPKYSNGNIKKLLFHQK
Method Description: cell_activity; EC50 is for dexamethasone; luciferase reporter in CV-1 cells
Protocol: The $EC50$ values were determined graphically. The HeLa cells were cultured under the same conditions.
Result Type: EC50 (nM)

- Binder: "synthetic palindromic GRE (pGRE-tk-Luc) (dsDNA) DNA 1: AGAACACAGTGTTCT DNA 2: AGAACACTGTGTTCT"
  Unit Abbrev: "nM"
  Value Observed: 20
